tested on: Escherichia coli TOP10; assay: shrunken log2 fold change of peptide-encoding DNA abundance (4.5 h post-induction vs induction); higher = less antimicrobial activity (less host growth inhibition); settings: time post-induction: 4.5 h; library: site-saturation at positions 5, 18, 19, 20
What shrunken log2 fold change was measured for each of the following?
Answers are plain numbers.

Known shrunken log2 fold change results, listed for orientation:
Reported shrunken log2 fold change (Escherichia coli TOP10) for entry RRIRMRPPRLPRPRPRPACKPRP is 0.484

Reported shrunken log2 fold change (Escherichia coli TOP10) for entry RRIRIRPPRLPRPRPRPSYCPRP is -0.408

Reported shrunken log2 fold change (Escherichia coli TOP10) for entry RRIRCRPPRLPRPRPRPLWAPRP is 0.321

Report shrunken log2 fold change for each item below.
1. RRIRSRPPRLPRPRPRPDYPPRP
2. RRIRPRPPRLPRPRPRPLCHPRP
3. RRIRMRPPRLPRPRPRPPILPRP
4. RRIRKRPPRLPRPRPRPQCRPRP
5. RRIRMRPPRLPRPRPRPKAEPRP

Response line:
[-0.0733, -0.139, 0.0619, 0.162, 3.05]

Report shrunken log2 fold change for each item below.
1. RRIRPRPPRLPRPRPRPNHMPRP
2. RRIRKRPPRLPRPRPRPQWRPRP
3. RRIRWRPPRLPRPRPRPAEVPRP
4. RRIRARPPRLPRPRPRPVWTPRP
5. RRIRQRPPRLPRPRPRPFRLPRP
6. RRIRARPPRLPRPRPRPGTHPRP
7. RRIRQRPPRLPRPRPRPDWNPRP

Response line:
-0.319
0.309
0.204
0.527
-0.00192
0.173
-0.189

Report shrunken log2 fold change for each item below.
1. RRIRIRPPRLPRPRPRPHTFPRP
2. RRIRIRPPRLPRPRPRPSHNPRP
3. RRIRVRPPRLPRPRPRPLMRPRP
4. RRIRTRPPRLPRPRPRPMHHPRP
5. RRIRVRPPRLPRPRPRPLWNPRP
6. RRIRSRPPRLPRPRPRPHMKPRP
7. RRIRYRPPRLPRPRPRPSKKPRP
8. RRIRGRPPRLPRPRPRPYIHPRP

Response line:
1: -1.53; 2: -1.06; 3: 0.515; 4: -0.00407; 5: -0.197; 6: 0.427; 7: -0.0925; 8: -0.252

Report shrunken log2 fold change for each item below.
1. RRIRQRPPRLPRPRPRPYCKPRP
2. RRIRHRPPRLPRPRPRPKCIPRP
3. RRIRPRPPRLPRPRPRPSYMPRP
4. RRIRCRPPRLPRPRPRPLYFPRP
5. RRIRCRPPRLPRPRPRPEGTPRP
6. RRIRVRPPRLPRPRPRPKFNPRP
7. RRIRYRPPRLPRPRPRPELNPRP
8. RRIRHRPPRLPRPRPRPNSQPRP

Response line:
1. -0.257
2. -0.021
3. -0.962
4. -0.836
5. 0.137
6. -0.42
7. -0.395
8. -0.346

====

test system: Escherichia coli TOP10; experiment: shrunken log2 fold change of peptide-encoding DNA abundance (4.5 h post-induction vs induction); higher = less antimicrobial activity (less host growth inhibition); details: time post-induction: 4.5 h; library: site-saturation at positions 5, 18, 19, 20
Observed property: shrunken log2 fold change
Numbers only.

GET /value?item= RRIRIRPPRLPRPRPRPLFFPRP &field=shrunken log2 fold change returns -0.374

GET /value?item= RRIRERPPRLPRPRPRPYNTPRP &field=shrunken log2 fold change returns -0.742

GET /value?item= RRIRGRPPRLPRPRPRPIRQPRP &field=shrunken log2 fold change returns -0.0411

GET /value?item= RRIRVRPPRLPRPRPRPMSLPRP &field=shrunken log2 fold change returns 0.0447

GET /value?item= RRIRGRPPRLPRPRPRPPYLPRP &field=shrunken log2 fold change returns -0.0342

GET /value?item= RRIRVRPPRLPRPRPRPDDKPRP &field=shrunken log2 fold change returns -0.446

GET /value?item= RRIRPRPPRLPRPRPRPGCKPRP &field=shrunken log2 fold change returns 0.368

GET /value?item= RRIRARPPRLPRPRPRPDVGPRP &field=shrunken log2 fold change returns 0.0285

Report shrunken log2 fold change for each item below.
1. RRIRYRPPRLPRPRPRPTGYPRP
2. RRIRPRPPRLPRPRPRPYQYPRP
3. RRIRNRPPRLPRPRPRPALAPRP
4. RRIRGRPPRLPRPRPRPTQHPRP
5. RRIRHRPPRLPRPRPRPEQTPRP
6. RRIRVRPPRLPRPRPRPMCEPRP
7. RRIRSRPPRLPRPRPRPQSIPRP
8. RRIRPRPPRLPRPRPRPSTFPRP

Response line:
1. -1.16
2. -0.292
3. 0.1
4. 0.855
5. -0.01
6. 0.0553
7. -0.263
8. 0.147

Report shrunken log2 fold change for each item below.
1. RRIRTRPPRLPRPRPRPRWTPRP
2. RRIRPRPPRLPRPRPRPWHTPRP
3. RRIRFRPPRLPRPRPRPTANPRP
4. RRIRPRPPRLPRPRPRPFKQPRP
5. RRIRQRPPRLPRPRPRPIYKPRP

Response line:
1: -0.0339; 2: -0.087; 3: -0.0711; 4: -0.258; 5: -0.12

Report shrunken log2 fold change for each item below.
1. RRIRMRPPRLPRPRPRPMRNPRP
2. RRIRARPPRLPRPRPRPVYVPRP
3. RRIRWRPPRLPRPRPRPPAFPRP
4. RRIRRRPPRLPRPRPRPSWFPRP
5. RRIRFRPPRLPRPRPRPAWYPRP
6. RRIRLRPPRLPRPRPRPPDKPRP
7. RRIRIRPPRLPRPRPRPKHPPRP

Response line:
[1.62, 0.111, 0.204, 0.165, -0.103, 0.0844, -0.0675]

Report shrunken log2 fold change for each item below.
1. RRIRARPPRLPRPRPRPENYPRP
2. RRIRLRPPRLPRPRPRPLYNPRP
3. RRIRIRPPRLPRPRPRPHMCPRP
4. RRIRKRPPRLPRPRPRPLMGPRP

Response line:
1. 0.0453
2. -0.305
3. -1.25
4. 0.818

====

test system: Escherichia coli TOP10; assay: shrunken log2 fold change of peptide-encoding DNA abundance (4.5 h post-induction vs induction); higher = less antimicrobial activity (less host growth inhibition); settings: time post-induction: 4.5 h; library: site-saturation at positions 5, 18, 19, 20
If the reported shrunken log2 fold change equals or exceeds 0.2, assign satisfied. If not, assign not satisfied.

Answered examples (2):
Prompt line: Would you say RRIRRRPPRLPRPRPRPRPWPRP shows shrunken log2 fold change at minimum 0.2?
Response line: satisfied

Prompt line: Would you say RRIRERPPRLPRPRPRPPEQPRP shows shrunken log2 fold change at minimum 0.2?
Response line: satisfied

***
Prompt line: Would you say RRIRQRPPRLPRPRPRPCQDPRP shows shrunken log2 fold change at minimum 0.2?
Response line: not satisfied

Prompt line: Would you say RRIRVRPPRLPRPRPRPESLPRP shows shrunken log2 fold change at minimum 0.2?
Response line: not satisfied

====

system: Escherichia coli TOP10; assay: shrunken log2 fold change of peptide-encoding DNA abundance (4.5 h post-induction vs induction); higher = less antimicrobial activity (less host growth inhibition); conditions: time post-induction: 4.5 h; library: site-saturation at positions 5, 18, 19, 20
If the reported shrunken log2 fold change equals or exceeds 0.01, assign label 1. If not, assign label 0.

Prompt line: Would you say RRIRMRPPRLPRPRPRPTACPRP shows shrunken log2 fold change at minimum 0.01?
Response line: label 1

Prompt line: Would you say RRIRHRPPRLPRPRPRPQQLPRP shows shrunken log2 fold change at minimum 0.01?
Response line: label 1

Prompt line: Would you say RRIRLRPPRLPRPRPRPYDRPRP shows shrunken log2 fold change at minimum 0.01?
Response line: label 0

Prompt line: Would you say RRIRHRPPRLPRPRPRPVHPPRP shows shrunken log2 fold change at minimum 0.01?
Response line: label 0

Prompt line: Would you say RRIRERPPRLPRPRPRPAENPRP shows shrunken log2 fold change at minimum 0.01?
Response line: label 0

***
Prompt line: Would you say RRIRPRPPRLPRPRPRPWSTPRP shows shrunken log2 fold change at minimum 0.01?
Response line: label 0

Prompt line: Would you say RRIRERPPRLPRPRPRPRRHPRP shows shrunken log2 fold change at minimum 0.01?
Response line: label 1

====

What shrunken log2 fold change was measured for each of the following?
tested on: Escherichia coli TOP10; assay: shrunken log2 fold change of peptide-encoding DNA abundance (4.5 h post-induction vs induction); higher = less antimicrobial activity (less host growth inhibition); conditions: time post-induction: 4.5 h; library: site-saturation at positions 5, 18, 19, 20;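 further: peptides expressed intracellularly from a pBAD plasmid library in pooled LB shake-flask culture, induced with 0.3% L-arabinose, DNA abundance read by NGS, three biological replicates, DESeq2 with apeglm shrinkage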
Give bare numbers.

Known shrunken log2 fold change results, listed for orientation:
Reported shrunken log2 fold change (Escherichia coli TOP10) for entry RRIRPRPPRLPRPRPRPDCPPRP is -0.0368

Reported shrunken log2 fold change (Escherichia coli TOP10) for entry RRIRFRPPRLPRPRPRPYAPPRP is -0.496

Reported shrunken log2 fold change (Escherichia coli TOP10) for entry RRIRMRPPRLPRPRPRPRRFPRP is 0.339

Reported shrunken log2 fold change (Escherichia coli TOP10) for entry RRIRYRPPRLPRPRPRPKPWPRP is 0.03

Reported shrunken log2 fold change (Escherichia coli TOP10) for entry RRIRIRPPRLPRPRPRPNFRPRP is -0.297

Reported shrunken log2 fold change (Escherichia coli TOP10) for entry RRIRVRPPRLPRPRPRPDYNPRP is -0.554

Reported shrunken log2 fold change (Escherichia coli TOP10) for entry RRIRYRPPRLPRPRPRPMTHPRP is -0.348

Reported shrunken log2 fold change (Escherichia coli TOP10) for entry RRIRLRPPRLPRPRPRPTRIPRP is -0.141

Report shrunken log2 fold change for each item below.
1. RRIRERPPRLPRPRPRPLPLPRP
2. RRIRCRPPRLPRPRPRPEKTPRP
3. RRIRIRPPRLPRPRPRPRMRPRP
4. RRIRDRPPRLPRPRPRPTHKPRP

Response line:
[-0.0754, -0.0706, 0.791, -0.0994]

Report shrunken log2 fold change for each item below.
1. RRIRQRPPRLPRPRPRPGDWPRP
2. RRIRERPPRLPRPRPRPSKDPRP
3. RRIRMRPPRLPRPRPRPCEFPRP

Response line:
1. 0.866
2. -0.664
3. 0.00328

Report shrunken log2 fold change for each item below.
1. RRIRFRPPRLPRPRPRPVKQPRP
2. RRIRTRPPRLPRPRPRPAWGPRP

Response line:
[-0.0303, 0.142]

Report shrunken log2 fold change for each item below.
1. RRIRHRPPRLPRPRPRPLEFPRP
2. RRIRARPPRLPRPRPRPTMTPRP
3. RRIRMRPPRLPRPRPRPGMSPRP
4. RRIRRRPPRLPRPRPRPMIWPRP
5. RRIRCRPPRLPRPRPRPCPPPRP

Response line:
[0.0369, 0.9, -0.0593, 0.0834, -0.0764]

Report shrunken log2 fold change for each item below.
1. RRIRKRPPRLPRPRPRPAKGPRP
2. RRIRARPPRLPRPRPRPGEGPRP
3. RRIRHRPPRLPRPRPRPIGQPRP
4. RRIRHRPPRLPRPRPRPLYAPRP
5. RRIRDRPPRLPRPRPRPTTYPRP
6. RRIRARPPRLPRPRPRPSFAPRP

Response line:
1: 0.136; 2: 1.02; 3: -0.042; 4: -0.402; 5: -0.0974; 6: 0.432

Report shrunken log2 fold change for each item below.
1. RRIRYRPPRLPRPRPRPRAMPRP
2. RRIRKRPPRLPRPRPRPWDMPRP
3. RRIRFRPPRLPRPRPRPFGNPRP
4. RRIRTRPPRLPRPRPRPTSGPRP

Response line:
1. -0.0749
2. 0.142
3. 0.0348
4. 0.0562

Origin of measurements: the supplement of paper PMC9112550
